Parameter: Ratio of intensity inside:outside FUS-SNAP Condensates Day 1. Scope: all listed entries.
# ASSAYED_TARGET: FUS-SNAP condensates (Homo sapiens, UniProt P35637)
# ASSAY_NAME: Fluorescence imaging of dye partitioning in FUS-SNAP condensates (I-in, I-out)
# Assay type: physicochemical
# SETUP_CONDITIONS: I-in:I-out; Day 1; 10 μM dye
Structures can show the parent of a compound that is named as a salt.
MEASUREMENT_NAME: Ratio of intensity inside:outside FUS-SNAP Condensates Day 1

CC(=O)N[C@H]1[C@H](Oc2ccc3c(c2)Oc2cc(O)ccc2C32OC(=O)c3ccccc32)O[C@H](CO)[C@H](O)[C@@H]1O (stereo partly drawn) ... 1.2
O=C([O-])c1ccccc1C1=c2cc3c4c(c2Oc2c1cc1c5c2CCCN5CCC1)CCC[N+]=4CCC3 [Dye 17, Rhodamine 101 inner salt] ... 6.1
O=c1cc(C(F)(F)F)c2ccc(O)cc2o1 [Dye 2, 7-Hydroxy-4-(trifluoromethyl)-coumarin] ... 1.4

====

Parameter: Ratio of intensity inside:outside PGL-3 Condensates Day 2. Scope: all listed entries.
# ASSAYED_TARGET: PGL-3 condensates (Caenorhabditis elegans)
# Sequence (G5EBV6 1-693): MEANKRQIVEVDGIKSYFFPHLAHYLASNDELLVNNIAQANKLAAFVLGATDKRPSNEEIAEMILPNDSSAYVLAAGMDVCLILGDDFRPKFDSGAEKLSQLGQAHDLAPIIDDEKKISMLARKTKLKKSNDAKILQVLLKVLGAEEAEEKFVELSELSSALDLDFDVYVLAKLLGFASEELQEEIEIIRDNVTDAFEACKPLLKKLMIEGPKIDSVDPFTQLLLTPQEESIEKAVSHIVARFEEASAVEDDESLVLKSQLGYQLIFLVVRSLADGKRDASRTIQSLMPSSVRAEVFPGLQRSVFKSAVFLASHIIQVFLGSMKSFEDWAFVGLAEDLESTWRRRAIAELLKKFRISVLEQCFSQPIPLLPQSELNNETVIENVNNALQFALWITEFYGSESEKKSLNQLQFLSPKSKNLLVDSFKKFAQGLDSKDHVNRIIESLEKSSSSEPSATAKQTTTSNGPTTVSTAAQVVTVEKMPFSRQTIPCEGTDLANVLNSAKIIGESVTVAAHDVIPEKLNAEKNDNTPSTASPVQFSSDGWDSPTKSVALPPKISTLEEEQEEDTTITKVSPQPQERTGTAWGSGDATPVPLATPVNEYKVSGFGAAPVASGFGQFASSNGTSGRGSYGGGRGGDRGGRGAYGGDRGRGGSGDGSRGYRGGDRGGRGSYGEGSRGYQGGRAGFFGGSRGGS
# ASSAY_NAME: Fluorescence imaging of dye partitioning in PGL-3 condensates (I-in, I-out)
# Type: physicochemical
# SETUP_CONDITIONS: I-in:I-out; Day 2; 10 μM dye
Counter-ions that a name gives are not always drawn.
MEASUREMENT_NAME: Ratio of intensity inside:outside PGL-3 Condensates Day 2

CC(=O)Oc1ccc2c(c1)Oc1cc(OC(C)=O)ccc1C21OC(=O)c2ccccc21 [Dye 9, Fluorescein diacetate] ... −0.4
CC(=O)N[C@H]1[C@H](Oc2ccc3c(c2)Oc2cc(O)ccc2C32OC(=O)c3ccccc32)O[C@H](CO)[C@H](O)[C@@H]1O (some centres unmarked) ... 1.1
N#CC1=c2cc3c4c(c2Oc2c1cc1c5c2CCCN5CCC1)CCC[N+]=4CCC3 ... 2.4
N=C(N)c1ccc(-c2cc3ccc(C(=N)N)cc3[nH]2)cc1 ... 3.3
O=C(CCCC[C@@H]1SCC2NC(=O)NC21)NCCNC(=O)c1ccc(-c2c3ccc(=O)cc-3oc3ccc(O)cc23)c(C(=O)O)c1 (some centres unmarked) ... 1.1
O=c1cc(C(F)(F)F)c2ccc(O)cc2o1 [Dye 2, 7-Hydroxy-4-(trifluoromethyl)-coumarin] ... 1.1
CC/N=c1/cc2oc3cc(NCC)c(C)cc3c(-c3ccccc3C(=O)NCCOCCOCCN)c-2cc1C.O=C(O)C(F)(F)F ... 3.3
COC(=O)c1ccccc1-c1c2ccc(=N)cc-2oc2cc(N)ccc12.Cl ... 1.1
CCN(CC)c1ccc2c(-c3ccccc3C(=O)O)c3ccc(=[N+](CC)CC)cc-3oc2c1 ... 1.3
CC(=O)c1cc2cc3c4c(c2oc1=O)CCCN4CCC3 ... 1.3
O=C([O-])c1ccccc1C1=c2cc3c4c(c2Oc2c1cc1c5c2CCCN5CCC1)CCC[N+]=4CCC3 [Dye 17, Rhodamine 101 inner salt] ... 1.9
O=C(O)c1cc2cc3c4c(c2oc1=O)CCCN4CCC3 ... 1.1
O=C1OC2(c3ccc(O[C@@H]4O[C@H](CO)[C@H](O)[C@H](O)[C@H]4O)cc3Oc3cc(O[C@@H]4O[C@H](CO)[C@H](O)[C@H](O)[C@H]4O)ccc32)c2ccccc21 [Dye 12, Fluorescein di(β-D-galacto-pyranoside)] ... 1.9
O=C1OC2(c3ccc(O)cc3Oc3cc(O)ccc32)c2ccccc21 ... 1.0

====

Parameter: Intensity Outside with Dye 2. Scope: all listed entries.
# ASSAYED_TARGET: FUS-SNAP condensates (Homo sapiens, UniProt P35637)
# Sequence (P35637 1-526): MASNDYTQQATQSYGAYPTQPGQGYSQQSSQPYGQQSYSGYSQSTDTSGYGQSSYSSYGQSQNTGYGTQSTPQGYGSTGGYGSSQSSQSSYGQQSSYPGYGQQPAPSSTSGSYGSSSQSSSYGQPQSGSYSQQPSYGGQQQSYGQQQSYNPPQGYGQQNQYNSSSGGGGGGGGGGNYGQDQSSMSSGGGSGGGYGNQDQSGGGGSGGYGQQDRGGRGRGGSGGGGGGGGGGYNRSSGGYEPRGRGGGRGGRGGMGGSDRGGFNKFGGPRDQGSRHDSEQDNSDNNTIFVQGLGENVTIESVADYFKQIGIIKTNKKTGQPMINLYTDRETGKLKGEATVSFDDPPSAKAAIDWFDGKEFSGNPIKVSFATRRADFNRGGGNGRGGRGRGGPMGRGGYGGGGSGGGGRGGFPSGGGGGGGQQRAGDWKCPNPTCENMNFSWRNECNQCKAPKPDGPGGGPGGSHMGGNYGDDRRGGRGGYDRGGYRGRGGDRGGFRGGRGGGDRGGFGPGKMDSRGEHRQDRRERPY
# ASSAY_NAME: Fluorescence imaging of dye partitioning in FUS-SNAP condensates (I-in, I-out)
# Format: physicochemical
# SETUP_CONDITIONS: outside FUS-SNAP condensate; 10 μM dye, 5 μM protein; image 2; one day of experiments
MEASUREMENT_NAME: Intensity Outside with Dye 2

O=c1cc(C(F)(F)F)c2ccc(O)cc2o1 [Dye 2, 7-Hydroxy-4-(trifluoromethyl)-coumarin] ... 228.5
COC(=O)c1ccccc1-c1c2ccc(=N)cc-2oc2cc(N)ccc12.Cl [Dye 14, Rhodamine 123] ... 2322.7
O=C1OC2(c3ccc(O[C@@H]4O[C@H](CO)[C@H](O)[C@H](O)[C@H]4O)cc3Oc3cc(O[C@@H]4O[C@H](CO)[C@H](O)[C@H](O)[C@H]4O)ccc32)c2ccccc21 [Dye 12, Fluorescein di(β-D-galacto-pyranoside)] ... 142.8

====

# ASSAYED_TARGET: FUS-SNAP condensates (Homo sapiens, UniProt P35637)
# ASSAY_NAME: Fluorescence imaging of dye partitioning in FUS-SNAP condensates (I-in, I-out)
# Assay type: physicochemical
# SETUP_CONDITIONS: inside FUS-SNAP condensate; 10 μM dye, 5 μM protein; image 3; one day of experiments
Where Intensity Inside with Dye 3 equals or exceeds 5000, the correct label is met; where it does not, the label is not met.

O=C(CCCC[C@@H]1SCC2NC(=O)NC21)NCCNC(=O)c1ccc(-c2c3ccc(=O)cc-3oc3ccc(O)cc23)c(C(=O)O)c1 (stereo partly shown) ... met
O=C1OC2(c3ccc(O)cc3Oc3cc(O)ccc32)c2ccccc21 ... met
CC(=O)Oc1ccc2c(c1)Oc1cc(OC(C)=O)ccc1C21OC(=O)c2ccccc21 [Dye 9, Fluorescein diacetate] ... met
CCN(CC)c1ccc2c(-c3ccccc3C(=O)O)c3ccc(=[N+](CC)CC)cc-3oc2c1 ... not met
N#CC1=c2cc3c4c(c2Oc2c1cc1c5c2CCCN5CCC1)CCC[N+]=4CCC3 ... met
CC(=O)c1cc2cc3c4c(c2oc1=O)CCCN4CCC3 ... met
COC(=O)c1ccccc1-c1c2ccc(=N)cc-2oc2cc(N)ccc12.Cl ... not met

====

# ASSAYED_TARGET: PGL-3 condensates (Caenorhabditis elegans, UniProt G5EBV6)
# ASSAY_NAME: Fluorescence imaging of dye partitioning in PGL-3 condensates (I-in, I-out)
# Type: physicochemical
# SETUP_CONDITIONS: inside PGL-3 condensate; 10 μM dye, 5 μM protein; average of three images; one day of experiments
Counter-ions that a name gives are not always drawn.
Parameter: Intensity Inside with Dye Average. Scope: all listed entries.
MEASUREMENT_NAME: Intensity Inside with Dye Average

CCN(CC)c1ccc2c(-c3ccccc3C(=O)O)c3ccc(=[N+](CC)CC)cc-3oc2c1 ... 5776.5
O=C([O-])c1ccccc1C1=c2cc3c4c(c2Oc2c1cc1c5c2CCCN5CCC1)CCC[N+]=4CCC3 [Dye 17, Rhodamine 101 inner salt] ... 13067.5
O=C(CCCC[C@@H]1SCC2NC(=O)NC21)NCCNC(=O)c1ccc(-c2c3ccc(=O)cc-3oc3ccc(O)cc23)c(C(=O)O)c1 (stereo partly shown) ... 3038.9
CC/N=c1/cc2oc3cc(NCC)c(C)cc3c(-c3ccccc3C(=O)NCCOCCOCCN)c-2cc1C.O=C(O)C(F)(F)F ... 6487.9
O=C(O)c1cc2cc3c4c(c2oc1=O)CCCN4CCC3 ... 2098.0
O=C1OC2(c3ccc(O)cc3Oc3cc(O)ccc32)c2ccccc21 ... 4402.0
COC(=O)c1ccccc1-c1c2ccc(=N)cc-2oc2cc(N)ccc12.Cl ... 2877.7
